System: E. coli (ATCC 10798)
experiment_description: MIC and MBC measurement
Type: cell-based, Escherichia coli
setup_conditions: ATCC10798; Table 9; Escherichia coli (ATCC 10798); read-out: MIC
Measured MIC by item
A number alone suffices; assume µg/mL.

Examples with answers:
mol_smiles	u	data_value
C[C@]12CC[C@@H](OCCCN)C[C@H]1C[C@@H](OCCCN)[C@@H]1[C@@H]2C[C@H](OCCCN)[C@]2(C)[C@@H](O)CC[C@@H]12	µg/mL	140
C[C@H](CO)[C@H]1CC[C@H]2[C@@H]3[C@H](OCCCN)C[C@@H]4C[C@H](OCCCN)CC[C@]4(C)[C@H]3C[C@H](OCCCN)[C@]12C	µg/mL	70
COCCC[C@@H](C)[C@H]1CC[C@H]2[C@@H]3[C@H](OCCCN)C[C@@H]4C[C@H](OCCCN)CC[C@]4(C)[C@H]3C[C@H](OCCCN)[C@]12C	µg/mL	30

Query: GET /values?readout=MIC&item= CCCOCCC[C@@H](C)[C@H]1CC[C@H]2[C@@H]3[C@H](OCCCN)C[C@@H]4C[C@H](OCCCN)CC[C@]4(C)[C@H]3C[C@H](OCCCN)[C@]12C
Reply: 12

Query: # repeat for CCCCCOCCC[C@@H](C)[C@H]1CC[C@H]2[C@@H]3[C@H](OCCCN)C[C@@H]4C[C@H](OCCCN)CC[C@]4(C)[C@H]3C[C@H](OCCCN)[C@]12C
Reply: 3

Query: Likewise for C[C@H](CCO)[C@H]1CC[C@H]2[C@@H]3[C@H](OCCCN)C[C@@H]4C[C@H](OCCCN)CC[C@]4(C)[C@H]3C[C@H](OCCCN)[C@]12C ?
Reply: 70
